Listing of entries alongside the reported koff.
SYSTEM_NAME: T1, human IL-17A/F heterodimer (human, UniProt Q16552 24-155; Q96PD4 31-163, limits assumed)
T1 construct: produced in E. coli, bought from R&D Systems (Cat 5194-IL/CF); also called hIL-17A/F
EXPERIMENT_DESCRIPTION: SPR

| BINDER | koff (s⁻¹) |
| --- | --- |
| IL17MS3010 (VHH, name in Kabat numbering, also called IL17MS3010 basic) VHH: EVQLVESGGGLVQPGGSQRLSCTASGTIVNIHVMGWYRQAPGKQRELVALIFSGGSADYADSVKGRFTISRDNSKNTVYLQMNSLRAEDTAVYYCAAEIGYYSGGTYYSSEAHWGQGTLVTVSS | 0.000217 |
| IL17MS3017 (VHH, name in Kabat numbering, basic + Q18L, T23A, A84P; Kabat positions) VHH: EVQLVESGGGLVQPGGSLRLSCAASGTIVNIHVMGWYRQAPGKQRELVALIFSGGSADYADSVKGRFTISRDNSKNTVYLQMNSLRPEDTAVYYCAAEIGYYSGGTYYSSEAHWGQGTLVTVSS | 0.000242 |
| IL17MS3011 (VHH, name in Kabat numbering, basic + Q18L; Kabat positions) VHH: EVQLVESGGGLVQPGGSLRLSCTASGTIVNIHVMGWYRQAPGKQRELVALIFSGGSADYADSVKGRFTISRDNSKNTVYLQMNSLRAEDTAVYYCAAEIGYYSGGTYYSSEAHWGQGTLVTVSS | 0.000223 |
